Origin of measurements: PubChem BioAssay (Tox21)

# Procedure Details: qHTS assay to identify small molecule agonists of the estrogen related receptor (ERR) signaling pathway from Tox21 library (AID 1224849); also: % is scaled to controls: 0 for no effect and ±100 for the full control effect; nearly all actives have a fitted effect of over 15% in size
# Measurement Conditions: ERR reporter cell line, ONE-Glo luciferase, 18 h; at 92.4 µM (top of the series) unless noted
The source made the active and inactive calls. Calls follow the shape of the full dose curve.
Result Type: activity change, positive = activation

INSERT INTO results (compound, result) VALUES
  ('CCCOc1ccc(S(=O)(=O)N2CCN(CC)CC2)cc1-c1nc2c(CC)n(Cc3ccccn3)nc2c(=O)[nH]1', '-21.4% (inactive)'),
  ('N#C/C(=C1/SC[C@@H](c2ccc(Cl)cc2Cl)S1)n1ccnc1', '-40.9% [at 42.5 µM] (inactive)'),
  ('CCCCC(=O)O[C@]1(C(=O)CO)[C@@H](C)C[C@H]2[C@@H]3CCC4=CC(=O)C=C[C@]4(C)[C@@]3(F)[C@@H](O)C[C@@]21C', '-45.4% (inactive)'),
  ('C[Si]1(C)O[Si](C)(C)O[Si](C)(C)O1', '-9.67% (inactive)'),
  ('CC1=CC(O)CC(C)(C)C1 (centres undefined)', '1.93% (inactive)'),
  ('CC#N', '6.68% (inactive)'),
  ('CO[C@H]1C=CO[C@@]2(C)Oc3c(C)c(O)c4c(O)c(c5c(c4c3C2=O)=NC2(CCN(CC(C)C)CC2)N=5)NC(=O)/C(C)=C\C=C/[C@H](C)[C@H](O)[C@@H](C)[C@@H](O)[C@@H](C)[C@H](OC(C)=O)[C@@H]1C', '-63.3% (inactive)'),
  ('CO[C@H]1O[C@H](CO)[C@@H](O)[C@H](O)[C@H]1O', '10.5% (inactive)'),
  ('O=C(N[C@@H](c1ccccc1)[C@@H]1CCCCN1)c1cccc(C(F)(F)F)c1Cl', '-38.1% (inactive)');

---

# Procedure Details: Caspase-3/7 induction in CHO-K1 cells by small molecules, qHTS cell viability counter screen (AID 1346979); also: nearly all actives have a fitted effect of over 35% in size
# Measurement Conditions: CellTiter-Fluor fluorescence, 17 h; series mostly up to 92.4 µM
Records with an inconclusive call do not appear. Active and inactive are the calls of the source. Calls follow the shape of the dose curve; as a rule, active = well fitted cell-killing curve with a large enough effect in the repeat runs; inconclusive = weak or mixed curves, or effect the other way; inactive = no such curve, though single readings can be large or run the other way.
Possible outcomes: active, inactive

INSERT INTO results (compound, label_value) VALUES
  ('CN1CCN(CCCN2c3ccccc3Sc3ccc(S(=O)(=O)N(C)C)cc32)CC1', 'active'),
  ('COc1cc2c(cc1OC)-c1cc(=Nc3c(C)cc(C)cc3C)n(C)c(=O)n1CC2', 'active'),
  ('CC(C)CCCC(=O)O', 'inactive'),
  ('Cc1cc(OI)c(C(C)C)cc1-c1cc(C(C)C)c(OI)cc1C', 'inactive'),
  ('CCC1(C)CC(=O)NC1=O (stereo unspecified)', 'inactive'),
  ('Nc1c(I)cc(I)c(C(=O)N(CCC(=O)O)c2ccccc2)c1I', 'inactive'),
  ('CC(C)=CC=O', 'inactive'),
  ('CC1(C)C(=O)N(Br)C(=O)N1Cl', 'inactive'),
  ('COC(OC)(C(=O)c1ccccc1)c1ccccc1', 'inactive'),
  ('CCCCOC(=O)CCS', 'inactive'),
  ('Cc1nccn1-c1ccc(Sc2cccc(C3(C(N)=O)CCOCC3)c2)cc1', 'active'),
  ('COc1ccc(C(=O)c2cccc(O)c2)c(OC)c1', 'inactive'),
  ('C/C(=N/NC(=O)c1ccncc1)C(=O)O', 'inactive'),
  ('C[C@@H]1C[C@H]2[C@@H]3CCC4=CC(=O)C=C[C@]4(C)[C@@]3(F)[C@@H](O)C[C@]2(C)[C@@]1(O)C(=O)CO', 'inactive'),
  ('CCOC(=N)CC(=O)OCC', 'inactive'),
  ('CCC(C(=O)OCCOCCN(CC)CC)c1ccccc1 (stereo unspecified)', 'inactive'),
  ('CCCCCCCCCOC(C)=O', 'inactive'),
  ('CCCCCCCCCCCCCCC[C@H](O)[C@@H](N)CO', 'inactive'),
  ('C[Si](NC1CCCCC1)(NC1CCCCC1)NC1CCCCC1', 'inactive'),
  ('OCC1CC=CCC1 (stereo unspecified)', 'inactive'),
  ('CC(Cl)C(Cl)Cl (stereo unspecified)', 'inactive'),
  ('CC(C)C(=O)O', 'inactive'),
  ('c1cc[c]([Bi]([c]2ccccc2)[c]2ccccc2)cc1', 'active'),
  ('C[C@@H]1C[C@H]2[C@@H]3CCC4=CC(=O)C=C[C@]4(C)[C@@]3(F)[C@@H](O)C[C@]2(C)[C@H]1C(=O)CO', 'inactive'),
  ('Cc1cnc(C)c(C)n1', 'inactive'),
  ('Cc1ccc(Nc2nccc(N(C)c3ccc4c(C)n(C)nc4c3)n2)cc1S(N)(=O)=O', 'active');
